# System: PC49
# PROTOCOL_DESCRIPTION: qHTS profiling for inhibitors of Plasmodium falciparum proliferation (AID 504749); further: nearly all actives have a fitted effect of over 60% in size
# EXPERIMENTAL_PARAMETERS: P. falciparum in erythrocytes, SYBR Green DNA, 72 h; series mostly up to 28.7 µM
Results filed as inconclusive are left out. Activity calls are given as the source filed them. The call rests on the fitted dose curve; in most records, active means well fitted inhibition curve with a large enough effect; inconclusive means small, poorly fitted or top-dose-only effect; inactive means flat fitted curve, though single readings scatter.
Outcomes: T (active), F (inactive)

1. COc1ccc(C(CN(C)C)C2(O)CCCCC2)cc1 (stereo not drawn): F
2. CC(=O)[C@H]1CC[C@H]2[C@@H]3CC[C@H]4C[C@H](O)CC[C@]4(C)[C@H]3C(=O)C[C@]12C: F
3. O=C(NC(O)C(Cl)(Cl)Cl)NC(O)C(Cl)(Cl)Cl (stereo not drawn): F
4. COc1ccc(C(=O)c2c(C)n(CCN3CCOCC3)c3ccccc23)cc1: F
5. C#CCOC(C(=O)OCCN(C)C)(c1ccccc1)c1ccccc1: F
6. C=C(C)[C@H]1Cc2c(ccc3c2O[C@@H]2COc4cc(OC)c(OC)cc4[C@@H]2C3=O)O1: F
7. NCCc1cc(O)c(O)cc1O: F
8. N[C@@H](Cc1ccc(N(CCCl)CCCl)cc1)C(=O)O: F
9. CC(C)=CC1C(C(=O)OCc2cccc(Oc3ccccc3)c2)C1(C)C (stereo not drawn): F
10. CCCC(C)(COC(N)=O)COC(=O)NC(C)C (stereo not drawn): F
11. CCN(C(C)=O)c1cccc(-c2ccnc3c(C#N)cnn23)c1: F
12. CC(=O)[C@H]1CC[C@H]2[C@@H]3CC[C@H]4C[C@](C)(O)CC[C@]4(C)[C@H]3CC[C@]12C: F
13. CCOP(=S)(OCC)Oc1cc(C)nc(C(C)C)n1: F
14. O=c1[nH]c2ccccc2n1CCCN1CCC(n2c(=O)[nH]c3cc(Cl)ccc32)CC1: F
15. Clc1ccc(COC(Cn2ccnc2)c2ccc(Cl)cc2Cl)cc1 (stereo not drawn): T
16. NCC(O)c1ccc(O)cc1 (stereo not drawn): F
17. CCC(COC(=O)c1cc(OC)c(OC)c(OC)c1)(c1ccccc1)N(C)C (stereo not drawn): F
18. O=C1NCN(c2ccccc2)C12CCN(CC1COc3ccccc3O1)CC2 (stereo not drawn): F
19. Cc1ncc(CNC(=O)N(CCCl)N=O)c(N)n1: F
20. C[C@]12C/C(=C/O)C(=O)C[C@@H]1CC[C@@H]1[C@@H]2CC[C@@]2(C)[C@H]1CC[C@]2(C)O: F
21. CN(C)CCc1ccc(O)cc1: F
22. NCC(CC(=O)O)c1ccc(Cl)cc1 (stereo not drawn): F
23. CC(=O)Nc1cc([As](=O)(O)O)ccc1O: F
24. c1ccc2c(c1)Nc1ccccc1S2: F
25. CCN(CC)CCN1C(=O)CN=C(c2ccccc2F)c2cc(Cl)ccc21: F
26. CC[N+](CC)(CC)CC: F
27. CC[N+]1(C)CCCC(OC(=O)C(O)(c2ccccc2)c2ccccc2)C1 (stereo not drawn): F
28. Oc1cc(Cl)ccc1Oc1ccc(Cl)cc1Cl: T
29. NCC1(CC(=O)O)CCCCC1: F
30. O=P1(NCCCl)OCCCN1CCCl (stereo not drawn): F
31. CC(C)CC(N(C)C)C1(c2ccc(Cl)cc2)CCC1 (stereo not drawn): F
32. NN=C(N)N: F
33. CCN(CC)CCOC(=O)C(O)(c1ccccc1)c1ccccc1: F
